The origin of these recorded values is patent US11046670B2.

Recorded σ2 pKi ± SEM by entry
Target: sigma 2 receptor (Rattus norvegicus (Rat))
Sequence (Q5U3Y7 whole entry): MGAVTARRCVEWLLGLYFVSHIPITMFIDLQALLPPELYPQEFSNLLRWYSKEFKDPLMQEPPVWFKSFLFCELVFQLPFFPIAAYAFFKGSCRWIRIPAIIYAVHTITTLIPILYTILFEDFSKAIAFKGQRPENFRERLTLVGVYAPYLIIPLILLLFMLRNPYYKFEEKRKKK

- smilesEntry: "C=CCCN1CCN(c2ccc3c(c2)[C@H]2C[C@H]3CCN2C(=O)OCc2ccccc2)CC1"
  assayedTarget: "sigma 2 receptor (Rattus norvegicus (Rat))"
  σ2 pKi ± SEM: "7.79 ± 0.05"
- smilesEntry: "CN1CC[C@@H]2C[C@@H]1c1cc(-c3ccc(C(F)(F)F)cc3)ccc12"
  assayedTarget: "sigma 2 receptor (Rattus norvegicus (Rat))"
  σ2 pKi ± SEM: "7.36 ± 0.08"
- smilesEntry: "Cc1cccc(-c2ccc3c(c2)[C@H]2C[C@H]3CCN2C)c1"
  assayedTarget: "sigma 2 receptor (Rattus norvegicus (Rat))"
  σ2 pKi ± SEM: "6.88 ± 0.07"
- smilesEntry: "CN1CCN(c2ccc3c(c2)[C@H]2C[C@H]3CCN2S(=O)(=O)c2ccccc2)CC1"
  assayedTarget: "sigma 2 receptor (Rattus norvegicus (Rat))"
  σ2 pKi ± SEM: "6.12 ± 0.07"
- smilesEntry: "Fc1ccccc1CN1CC[C@@H]2C[C@@H]1c1cc(N3CCOCC3)ccc12"
  assayedTarget: "sigma 2 receptor (Rattus norvegicus (Rat))"
  σ2 pKi ± SEM: "5.9 ± 0.1"
- smilesEntry: "C=CCOC(=O)N1CC[C@@H]2C[C@@H]1c1cc(N3CCN(C)CC3)ccc12"
  assayedTarget: "sigma 2 receptor (Rattus norvegicus (Rat))"
  σ2 pKi ± SEM: "6.37 ± 0.07"
- smilesEntry: "c1ccc(CN2CC[C@@H]3C[C@@H]2c2cc(N4CCCCC4)ccc23)cc1"
  assayedTarget: "sigma 2 receptor (Rattus norvegicus (Rat))"
  σ2 pKi ± SEM: "6.5 ± 0.1"
- smilesEntry: "CC(C)=CCN1CCN(c2ccc3c(c2)[C@H]2C[C@H]3CCN2C(=O)OCc2ccccc2)CC1"
  assayedTarget: "sigma 2 receptor (Rattus norvegicus (Rat))"
  σ2 pKi ± SEM: "7.64 ± 0.07"
- smilesEntry: "CN1CCN(c2ccc3c(c2)[C@H]2C[C@H]3CCN2C(=O)CCc2ccccc2)CC1"
  assayedTarget: "sigma 2 receptor (Rattus norvegicus (Rat))"
  σ2 pKi ± SEM: "6.45 ± 0.06"
- smilesEntry: "FC(F)(F)c1ccc(-c2ccc3c(c2)[C@H]2C[C@H]3CCN2CCc2ccccc2)cc1"
  assayedTarget: "sigma 2 receptor (Rattus norvegicus (Rat))"
  σ2 pKi ± SEM: "6.8 ± 0.1"

====

Biological target: sigma 1 receptor (Cavia porcellus (Guinea pig), UniProt Q60492)
Sequence (Q60492 whole entry): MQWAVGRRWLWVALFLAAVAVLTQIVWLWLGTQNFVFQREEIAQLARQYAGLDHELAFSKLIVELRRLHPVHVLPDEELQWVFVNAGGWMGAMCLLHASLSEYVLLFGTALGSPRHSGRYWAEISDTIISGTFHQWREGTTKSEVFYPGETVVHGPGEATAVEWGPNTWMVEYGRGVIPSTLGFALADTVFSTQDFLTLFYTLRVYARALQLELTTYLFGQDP
Recorded σ1 pKi ± SEM by entry

- smilesEntry: "Cc1cccc(-c2ccc3c(c2)[C@H]2C[C@H]3CCN2C)c1"
  σ1 pKi ± SEM: 6.41
- smilesEntry: "CN1CC[C@@H]2C[C@@H]1c1cc(-c3ccc(C(F)(F)F)cc3)ccc12"
  σ1 pKi ± SEM: 6.81
- smilesEntry: "C=CCCN1CCN(c2ccc3c(c2)[C@H]2C[C@H]3CCN2C(=O)OCc2ccccc2)CC1"
  σ1 pKi ± SEM: 6.76
- smilesEntry: "Clc1cc(Cl)cc(CN2CC[C@@H]3C[C@@H]2c2cc(N4CCOCC4)ccc23)c1"
  σ1 pKi ± SEM: 5.53
- smilesEntry: "c1ccc(CN2CC[C@@H]3C[C@@H]2c2cc(N4CCCCC4)ccc23)cc1"
  σ1 pKi ± SEM: 5.61
- smilesEntry: "C=CCOC(=O)N1CC[C@@H]2C[C@@H]1c1cc(N3CCN(C)CC3)ccc12"
  σ1 pKi ± SEM: 5.68
- smilesEntry: "CC(C)=CCN1CCN(c2ccc3c(c2)[C@H]2C[C@H]3CCN2C(=O)OCc2ccccc2)CC1"
  σ1 pKi ± SEM: 7.21
- smilesEntry: "Fc1ccccc1CN1CC[C@@H]2C[C@@H]1c1cc(N3CCOCC3)ccc12"
  σ1 pKi ± SEM: 5.34
- smilesEntry: "CN1CCN(c2ccc3c(c2)[C@H]2C[C@H]3CCN2C(=O)CCc2ccccc2)CC1"
  σ1 pKi ± SEM: 6.53
